# test-system: GTPase HRas [G12V] (Homo sapiens, UniProt P01112, G12V)
# Sequence (P01112 whole entry G12V, looked up): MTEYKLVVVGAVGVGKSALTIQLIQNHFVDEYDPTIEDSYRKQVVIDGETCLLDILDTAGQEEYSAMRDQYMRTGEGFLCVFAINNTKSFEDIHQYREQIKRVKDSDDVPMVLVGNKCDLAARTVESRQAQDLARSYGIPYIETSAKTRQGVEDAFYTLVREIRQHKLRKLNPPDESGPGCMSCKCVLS
# assay-remarks: In Vitro Ras-Raf Binding Inhibitory Activity Assay
Reported IC50 values for the following molecules.
Give the value in nM but do not write nM after it.

Please review the following examples before continuing.
INSERT INTO assay_data (molecule, test_readout, number) VALUES
  ('COC1(CN2CCN(C(=O)c3ccc4nc(/C=C5/C(=O)c6ccccc6N5C(C)=O)ccc4c3)CC2)COC1 [US20250091994, Example 119]', 'IC50', 2900),
  ('CC(=O)N1/C(=C\c2cc(C(N)=O)c3cc(C(=O)N4CCOCC4)ccc3n2)C(=O)c2ccccc21 [US20250091994, Example 111]', 'IC50', 1000),
  ('CC(=O)N1CCc2cc(-c3c(C(=O)N4CCOCC4)ccc4nc(/C=C5/C(=O)c6ccccc6N5C(C)=O)ccc34)ccc2C1 [US20250091994, Example 200]', 'IC50', 1000),
  ('CC(=O)N1/C(=C/c2nc3ccc(/C=C/C(=O)N4CCOCC4)cc3s2)C(=O)c2ccccc21 [US20250091994, Example 108]', 'IC50', 2600),
  ('COc1cc(/C=C2/C(=O)c3ccccc3N2C(C)=O)ccc1/C=C/C(N)=O [US20250091994, Example 20]', 'IC50', 10000),
  ('CC(=O)N1C(=Cc2ccc3cc(/C=C/C(=O)NC4CCN(C5COC5)CC4)ccc3n2)C(=O)c2ccccc21 [US20250091994, Example 79]', 'IC50', 1100);

Data request: Look at this molecule and give its reported IC50. CCOc1cc(/C=C2/C(=O)c3ccccc3N2C(C)=O)ccc1OCC(N)=O [US20250091994, Example 13]
Data returned: 2500

Data request: Look at this molecule and give its reported IC50. CC(=O)N1/C(=C\c2ncc(C(=O)N3CCOCC3)s2)C(=O)c2ccccc21 [US20250091994, Example 38]
Data returned: 3700

Data request: Look at this molecule and give its reported IC50. CC(=O)N1/C(=C\c2ccc3cc(C(=O)N4CCN(C5COC5)CC4)ccc3n2)C(=O)c2ccccc21 [US20250091994, Example 41]
Data returned: 4700

Data request: Look at this molecule and give its reported IC50. CC(=O)N1C(=Cc2cc(-c3ccc4c(c3)CCNC4=O)c3ccccc3n2)C(=O)c2ccccc21 [US20250091994, Example 190]
Data returned: 900
